Entry source: patent US20230372364A1

Assay: 60 mg once daily for seven days, pharmacokinetics in humans (MAD)
Details: human, plasma, oral, 60 mg
observed property: concentration at 7 day (ng/mL)
// return numeric value only (unit: ng/mL, not printed)

The measured concentration at 7 day associated with C[C@@]1(O)CC[C@@]2(C)[C@@H](CC[C@@H]3[C@@H]2CC[C@]2(C)[C@@H](C(=O)Cn4cc(C#N)cn4)CC[C@@H]32)C1 reads 41.5

---

Experiment: Further pharmacokinetic analysis of Phase 1 human dosing exposure studies
Type: in vivo
Details: plasma, Phase 1, after oral administration
observed property: Tmax

So, C[C@@]1(O)CC[C@@]2(C)[C@@H](CC[C@@H]3[C@@H]2CC[C@]2(C)[C@@H](C(=O)Cn4cc(C#N)cn4)CC[C@@H]32)C1 ? Its Tmax was 3 to 4 h
